B1: library; numbered along this chain (parent)
chain: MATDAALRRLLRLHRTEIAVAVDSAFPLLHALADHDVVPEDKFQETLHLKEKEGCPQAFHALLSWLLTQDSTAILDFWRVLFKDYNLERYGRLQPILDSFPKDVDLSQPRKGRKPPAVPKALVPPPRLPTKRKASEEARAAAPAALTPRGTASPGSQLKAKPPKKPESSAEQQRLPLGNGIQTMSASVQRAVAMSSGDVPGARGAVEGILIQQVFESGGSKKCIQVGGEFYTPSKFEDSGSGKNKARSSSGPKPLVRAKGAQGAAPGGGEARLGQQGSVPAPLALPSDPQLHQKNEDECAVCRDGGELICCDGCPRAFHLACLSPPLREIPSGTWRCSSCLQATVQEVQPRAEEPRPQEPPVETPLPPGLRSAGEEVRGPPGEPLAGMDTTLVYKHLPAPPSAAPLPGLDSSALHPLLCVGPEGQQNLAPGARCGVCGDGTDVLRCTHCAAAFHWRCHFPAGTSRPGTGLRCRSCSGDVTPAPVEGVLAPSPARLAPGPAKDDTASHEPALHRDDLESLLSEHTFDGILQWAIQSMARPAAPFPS

Variants of: B1
Assay: AIRE transcriptional activation functional score (insulin promoter-GFP; nonsense median 0, synonymous median 1) (normalised score); higher = higher AIRE activity (more reporter activation)
Conditions: with insulin promoter-GFP reporter in HEK293
endpointName: AIRE transcriptional activation functional score
// return a plain number; no unit text

These solved cases illustrate the format of a correct answer.
>  <mutationKey>
E171R

>  <reportedValue>
1.22

$$$$
>  <mutationKey>
E216I

>  <reportedValue>
-1.75

$$$$
>  <mutationKey>
K294N

>  <reportedValue>
0.937

$$$$
>  <mutationKey>
S234G

>  <reportedValue>
1.16

$$$$
>  <mutationKey>
G219Q

>  <reportedValue>
0.0466

$$$$

stdin: Using the record for "R247S" , report its AIRE transcriptional activation functional score.
stdout: 0.966

stdin: Try this variant too: "P148N"
stdout: 0.598

stdin: Try this variant too: "P497L"
stdout: 1.34

stdin: Try this variant too: "P129Y"
stdout: 0.0475

stdin: Try this variant too: "A541P"
stdout: 0.791
